# System: CaCl2
# protocol.notes: Antifungal sensitivity testing (broth microdilution MIC)
# Type: cell-based
# cond: Table 4; 96-well broth microdilution
# label = 1 (yes) if MIC50 < 10 µM else 0 (no)

molecule	assigned.label
Nc1nc2sc(C(=O)N[C@H]3CCN(CC(O)(Cn4cncn4)c4ccc(F)cc4F)C3)cc2n(-c2ccc3c(c2)N(c2ccccc2)CCO3)c1=O (stereo partly drawn) [Compound I-14]	0 (no)
Nc1nc2sc(CNC3CN(CC(O)(Cn4cncn4)c4ccc(F)cc4F)C3)cc2n(-c2ccc3c(c2)N(c2ccccc2)CCO3)c1=O (stereo not drawn) [Compound I-66]	0 (no)
CC1(NC(=O)c2cc3c(nc(N)c(=O)n3-c3ccc4c(c3)N(c3ccccc3)CCO4)s2)CCN(CC(O)(Cn2cncn2)c2ccc(F)cc2F)CC1 (stereo not drawn) [Compound I-31]	1 (yes)

[Q] Find out if reported MIC50 for Nc1nc2sc(CNC3CCN(CCCCCC(O)(Cn4cncn4)c4ccc(F)cc4F)CC3)cc2n(-c2ccc3c(c2)N(c2ccccc2)CCO3)c1=O (stereo not drawn) [Compound I-118] is less than 10 µM
[A] 1 (yes)

[Q] Strictly below 10 µM in MIC50? Nc1nc2sc(CN[C@@H]3CCN(CC[C@@](O)(Cn4cncn4)c4ccc(F)cc4F)C3)cc2n(-c2ccc3c(c2)N(c2ccccc2)CCO3)c1=O [Compound I-123]
[A] 0 (no)

[Q] Identify whether the molecule Nc1nc2sc(CN[C@H]3[C@@H]4CN(C[C@](O)(Cn5cncn5)c5ccc(F)cc5F)C[C@@H]43)cc2n(-c2ccc3c(c2)N(c2ccccc2)CCO3)c1=O [Compound I-125] records MIC50 below 10 µM.
[A] 1 (yes)

----------
# experimental.target: Hsp90 Nuclear Binding Domain (NBD) (Aspergillus fumigatus, UniProt P40292)
# Sequence (P40292 whole entry, looked up, the tested form may be a part): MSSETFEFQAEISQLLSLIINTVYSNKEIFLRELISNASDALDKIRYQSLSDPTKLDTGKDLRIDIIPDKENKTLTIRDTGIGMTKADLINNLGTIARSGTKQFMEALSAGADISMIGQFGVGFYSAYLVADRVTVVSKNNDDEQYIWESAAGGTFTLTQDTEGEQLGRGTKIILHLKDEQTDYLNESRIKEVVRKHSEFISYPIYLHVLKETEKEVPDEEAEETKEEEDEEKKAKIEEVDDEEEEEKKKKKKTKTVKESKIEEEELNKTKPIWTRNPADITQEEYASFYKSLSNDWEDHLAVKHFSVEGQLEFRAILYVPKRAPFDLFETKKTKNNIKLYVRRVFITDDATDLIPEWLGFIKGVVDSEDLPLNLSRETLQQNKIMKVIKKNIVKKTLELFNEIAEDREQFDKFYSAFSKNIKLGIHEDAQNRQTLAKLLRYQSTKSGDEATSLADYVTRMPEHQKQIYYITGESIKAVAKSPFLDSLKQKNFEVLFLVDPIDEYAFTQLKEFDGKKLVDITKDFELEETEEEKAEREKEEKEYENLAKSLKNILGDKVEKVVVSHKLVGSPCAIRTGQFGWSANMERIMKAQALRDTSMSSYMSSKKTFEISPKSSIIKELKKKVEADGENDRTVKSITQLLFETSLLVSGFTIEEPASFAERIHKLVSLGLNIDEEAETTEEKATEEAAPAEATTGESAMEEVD
outcome.measure: pKd
Numbers only, as −log10 of the molar value.

Examples with their reported pKd follow.
molecule	experimental.target	pKd
Nc1nc2sc(CNCCC(O)(Cn3cncn3)c3ccc(F)cc3F)cc2n(-c2ccc3c(c2)N(c2ccccc2)CCO3)c1=O (stereo not drawn)	Hsp90 Nuclear Binding Domain (NBD) (Aspergillus fumigatus, UniProt P40292)	6.07
Nc1nc2scc(C(=O)N[C@H]3CCN(CC(O)(Cn4cncn4)c4ccc(F)cc4F)C3)c2n(-c2ccc3c(c2)N(c2ccccc2)CCO3)c1=O (stereo partly drawn)	Hsp90 Nuclear Binding Domain (NBD) (Aspergillus fumigatus, UniProt P40292)	5.57
Nc1nc2sc(CNC3CCN(CC(O)(Cn4cncn4)c4ccc(F)cc4F)C(=O)C3)cc2n(-c2ccc3c(c2)N(c2ccccc2)CCO3)c1=O (stereo not drawn)	Hsp90 Nuclear Binding Domain (NBD) (Aspergillus fumigatus, UniProt P40292)	6.21
Nc1nc2sc(C(=O)NC3CCN(C[C@](O)(Cn4cncn4)c4ccc(F)cc4F)CC3)cc2n(-c2ccc3c(c2)N(c2ccccc2)CCO3)c1=O	Hsp90 Nuclear Binding Domain (NBD) (Aspergillus fumigatus, UniProt P40292)	7.12
Nc1nc2sc(C(=O)NC3CCN(CC(O)(Cn4cncn4)c4ccccn4)CC3)cc2n(-c2ccc3c(c2)N(c2ccccc2)CCO3)c1=O (stereo not drawn)	Hsp90 Nuclear Binding Domain (NBD) (Aspergillus fumigatus, UniProt P40292)	7.47

[Q] Name the recorded pKd of Nc1nc2sc(CNC3CCN(C[C@@](O)(Cn4cncn4)c4ccc(F)cc4F)CC3)cc2n(-c2ccc3c(c2)N(c2ccccc2)CCO3)c1=O , assay system Hsp90 Nuclear Binding Domain (NBD) (Aspergillus fumigatus, UniProt P40292).
[A] 6.37
